assay: Oral bioavailability in Sprague-Dawley rat at 100 mg/kg
Type: ADME, organism-based
experimental_context: in vivo
quantity_kind: bioavailability

Input: // lookup bioavailability for Cn1cc(C(=O)Nc2ccc(-c3ccccc3)c(C(F)(F)F)c2)c(=O)c2cnc(CO)cc21
Output: > 93%

---

assay: Volume of distribution at steady state in Sprague-Dawley rat at 1 mg/kg, iv
Type: ADME, organism-based
Set-up: dose 1 mg/kg, route intravenous
experimental_context: in vivo, read-out: Vdss
quantity_kind: Vd (L/kg)
Dear colleague, please return just the value in L/kg, with no unit written.

Input: // lookup Vd for Cn1cc(C(=O)Nc2ccc(-c3ccccc3)c(C(F)(F)F)c2)c(=O)c2cnc(CO)cc21
Output: 5.8

---

assay: Clearance in nonhuman primates at 4 mg/kg, iv and 10 mg/kg, po
Format: ADME, organism-based
experimental_context: in vivo
quantity_kind: clearance (mL/min/kg)
Dear colleague, please return just the value in mL/min/kg, with no unit written.

Input: // lookup clearance for Cn1cc(C(=O)Nc2ccc(-c3ccccc3)c(C(F)(F)F)c2)c(=O)c2cnc(CO)cc21
Output: 1.83

---

assay: AUC (0 to infinity) in nonhuman primates at 10 mg/kg, po
Format: ADME, organism-based
Set-up: dose 10 mg/kg, route oral, time infinity
experimental_context: plasma
quantity_kind: AUC(0-inf) (µM·h)
Dear colleague, please return just the value in µM·h, with no unit written.

Input: // lookup AUC(0-inf) for Cn1cc(C(=O)Nc2ccc(-c3ccccc3)c(C(F)(F)F)c2)c(=O)c2cnc(CO)cc21
Output: 141

---

assay: Clearance in C57BL/6 mouse at 1 mg/kg, iv and 3 mg/kg, po
Assay type: ADME, organism-based
experimental_context: in vivo
quantity_kind: clearance (mL/min/kg)
Dear colleague, please return just the value in mL/min/kg, with no unit written.

Input: // lookup clearance for Cn1cc(C(=O)Nc2ccc(-c3ccccc3)c(C(F)(F)F)c2)c(=O)c2cnc(CO)cc21
Output: 5.17

---

Activity values for the molecules below.
target_under_test: Sphingosine 1-phosphate receptor 3 (Homo sapiens)
assay: Agonist activity at human S1P3 receptor expressed in CHO cells coexpressing Gq/i5 G-protein assessed as Ca2+ mobilization at 25 uM after 60 to 90 mins by FLIPR assay
Type: functional, cell-based

The examples below pair each entry with its known result.
{"mol": "Cn1cc(C(=O)Nc2ccc(-c3ccccc3)c(C(F)(F)F)c2)c(=O)c2ccc(C(=O)O)cc21", "value_reported": "< 10%"}
{"mol": "Cn1cc(C(=O)Nc2ccc(-c3ccccc3)c(C(F)(F)F)c2)c(=O)c2cc(CO)ccc21", "value_reported": "< 10%"}

Input: // lookup Activity for Cn1cc(C(=O)Nc2ccc(-c3ccccc3)c(C(F)(F)F)c2)c(=O)c2ccc(CO)cc21
Output: < 10%

---

assay: Solubility of the compound in simulated intestinal fluid at pH 6.8 after 2 to 3 days by HPLC analysis
Type: physicochemical
Give satisfied when the value for solubility is at least 50 µg/mL. Give not satisfied when it is less.

Some solved cases for reference:
{"mol": "Cn1cc(C(=O)Nc2ccc(-c3ccccc3)c(C(F)(F)F)c2)c(=O)c2cnc(CO)cc21", "class_label": "satisfied"}
{"mol": "Cn1cc(C(=O)Nc2ccc(-c3ccccc3)c(C(F)(F)F)c2)c(=O)c2ccc(CCO)cc21", "class_label": "not satisfied"}
{"mol": "Cn1cc(C(=O)Nc2ccc(-c3ccccc3)c(C(F)(F)F)c2)c(=O)c2ccc(CO)cc21", "class_label": "not satisfied"}
{"mol": "Cn1cc(C(=O)Nc2ccc(-c3ccccc3)c(C(F)(F)F)c2)c(=O)c2ccc(C(=O)O)cc21", "class_label": "not satisfied"}
{"mol": "Cn1cc(C(=O)Nc2ccc(-c3ccccc3)c(C(F)(F)F)c2)c(=O)c2ccc(CCC(=O)O)cc21", "class_label": "satisfied"}

Consider the additional compound presented here.
Input: Check the entry Cn1cc(C(=O)Nc2ccc(-c3ccccc3)c(C(F)(F)F)c2)c(=O)c2cnccc21 : does solubility equal or exceed 50 µg/mL?
Output: not satisfied

---

assay: Volume of distribution at steady state in C57BL/6 mouse at 1 mg/kg, iv
Type: ADME, organism-based
Parameters: dose 1 mg/kg, route intravenous
experimental_context: in vivo, read-out: Vdss
quantity_kind: Vd (L/kg)
Dear colleague, please return just the value in L/kg, with no unit written.

Input: // lookup Vd for Cn1cc(C(=O)Nc2ccc(-c3ccccc3)c(C(F)(F)F)c2)c(=O)c2cnc(CO)cc21
Output: 6

---

assay: Mean residence time in Sprague-Dawley rat at 1 mg/kg, iv
Type: ADME, organism-based
Parameters: dose 1 mg/kg, route intravenous
experimental_context: in vivo
quantity_kind: MRT
Value and unit, in that order.

Input: // lookup MRT for Cn1cc(C(=O)Nc2ccc(-c3ccccc3)c(C(F)(F)F)c2)c(=O)c2cnc(CO)cc21
Output: 19 h

---

EC50 values for the molecules below.
target_under_test: Sphingosine 1-phosphate receptor 1 (Homo sapiens, UniProt P21453)
Sequence (P21453 whole entry): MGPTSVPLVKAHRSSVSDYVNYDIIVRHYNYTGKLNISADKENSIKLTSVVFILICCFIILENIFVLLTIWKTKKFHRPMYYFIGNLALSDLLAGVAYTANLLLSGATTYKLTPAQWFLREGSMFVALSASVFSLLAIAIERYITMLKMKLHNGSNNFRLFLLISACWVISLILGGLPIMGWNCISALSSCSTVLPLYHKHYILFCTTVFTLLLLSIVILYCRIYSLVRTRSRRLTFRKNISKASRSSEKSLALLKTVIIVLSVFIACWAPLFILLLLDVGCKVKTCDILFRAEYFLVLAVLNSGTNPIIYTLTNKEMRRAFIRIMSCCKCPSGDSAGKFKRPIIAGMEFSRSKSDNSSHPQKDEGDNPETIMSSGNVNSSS
assay: Agonist activity at human S1P1 receptor expressed in human U2OS cells co-expressing eGFP assessed as receptor internalization after 1 hr
Dear colleague, please return just the value in nM, with no unit written.

{"mol": "Cn1cc(C(=O)Nc2ccc(-c3ccccc3)c(C(F)(F)F)c2)c(=O)c2cccc(C(=O)O)c21", "readout_units": "nM", "EC50": 2000}
{"mol": "Cn1cc(C(=O)Nc2ccc(-c3ccccc3)c(C(F)(F)F)c2)c(=O)c2ccc(CCC(=O)O)cc21", "readout_units": "nM", "EC50": 4}
{"mol": "Cn1cc(C(=O)Nc2ccc(-c3ccccc3)c(C(F)(F)F)c2)c(=O)c2ccc(CC(=O)O)cc21", "readout_units": "nM", "EC50": 180}
{"mol": "Cn1cc(C(=O)Nc2ccc(-c3ccccc3)c(C(F)(F)F)c2)c(=O)c2cnc(CO)cc21", "readout_units": "nM", "EC50": 18}
{"mol": "Cn1cc(C(=O)Nc2ccc(-c3ccccc3)c(C(F)(F)F)c2)c(=O)c2ccc(NCCC(=O)O)cc21", "readout_units": "nM", "EC50": 150}

Now take the following molecule into account.
Input: // lookup EC50 for Cn1cc(C(=O)Nc2ccc(-c3ccccc3)c(C(F)(F)F)c2)c(=O)c2ccc(CCO)cc21
Output: 8

---

target_under_test: Sphingosine 1-phosphate receptor 3 (Homo sapiens, UniProt Q99500)
Sequence (Q99500 whole entry): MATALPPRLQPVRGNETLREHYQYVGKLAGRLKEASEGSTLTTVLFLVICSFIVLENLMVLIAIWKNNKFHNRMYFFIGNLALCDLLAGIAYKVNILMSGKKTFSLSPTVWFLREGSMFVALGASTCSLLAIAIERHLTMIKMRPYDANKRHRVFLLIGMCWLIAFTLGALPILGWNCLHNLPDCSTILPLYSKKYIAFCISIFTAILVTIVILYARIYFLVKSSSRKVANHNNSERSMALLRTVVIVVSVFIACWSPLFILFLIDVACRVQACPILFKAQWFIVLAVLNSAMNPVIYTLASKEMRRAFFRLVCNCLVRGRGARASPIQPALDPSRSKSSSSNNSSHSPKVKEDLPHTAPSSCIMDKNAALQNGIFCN
assay: Agonist activity at human S1P3 receptor expressed in CHO cells coexpressing Gq/i5 G-protein assessed as Ca2+ mobilization after 60 to 90 mins by FLIPR assay
quantity_kind: EC50 (µM)
Dear colleague, please return just the value in µM, with no unit written.

The examples below pair each entry with its known result.
{"mol": "Cn1cc(C(=O)Nc2ccc(-c3ccccc3)c(C(F)(F)F)c2)c(=O)c2cnc(CCC(=O)O)cc21", "quantity_kind": "EC50", "readout_units": "µM", "value_reported": 1.3}
{"mol": "Cn1cc(C(=O)Nc2ccc(-c3ccccc3)c(C(F)(F)F)c2)c(=O)c2cccc(CN)c21", "quantity_kind": "EC50", "readout_units": "µM", "value_reported": 5.6}

Now take the following molecule into account.
Input: // lookup EC50 for Cn1cc(C(=O)Nc2ccc(-c3ccccc3)c(C(F)(F)F)c2)c(=O)c2cccc(C(=O)O)c21
Output: 1.1

---

assay: Plasma concentration in Lewis rat at 1 mg/kg, po measured 24 hrs post dosing
Format: ADME, organism-based
Parameters: dose 1 mg/kg, route oral
experimental_context: Lewis, plasma
quantity_kind: concentration at 24 h (ng/mL)
Dear colleague, please return just the value in ng/mL, with no unit written.

The examples below pair each entry with its known result.
{"mol": "Cn1cc(C(=O)Nc2ccc(-c3ccccc3)c(C(F)(F)F)c2)c(=O)c2cnc(CO)cc21", "quantity_kind": "concentration at 24 h", "readout_units": "ng/mL", "value_reported": 84}
{"mol": "Cn1cc(C(=O)Nc2ccc(-c3ccccc3)c(C(F)(F)F)c2)c(=O)c2ccc(CCC(=O)O)cc21", "quantity_kind": "concentration at 24 h", "readout_units": "ng/mL", "value_reported": 4}
{"mol": "Cn1cc(C(=O)Nc2ccc(-c3ccccc3)c(C(F)(F)F)c2)c(=O)c2ccc(CO)cc21", "quantity_kind": "concentration at 24 h", "readout_units": "ng/mL", "value_reported": 65}

Now take the following compound into account.
Input: // lookup concentration at 24 h for Cn1cc(C(=O)Nc2ccc(-c3ccccc3)c(C(F)(F)F)c2)c(=O)c2ccc(CCO)cc21
Output: 27

---

assay: Apparent permeability of the compound across pig LLC-PK1 cells
Type: ADME, cell-based, Sus scrofa
Papp values for the compounds below.
Value and unit, in that order.

{"mol": "Cn1cc(C(=O)Nc2ccc(-c3ccccc3)c(C(F)(F)F)c2)c(=O)c2ccc(CCO)cc21", "Papp": "2.2 ×10⁻⁶ cm/s"}
{"mol": "Cn1cc(C(=O)Nc2ccc(-c3ccccc3)c(C(F)(F)F)c2)c(=O)c2cnc(CO)cc21", "Papp": "2.5 ×10⁻⁶ cm/s"}
{"mol": "Cn1cc(C(=O)Nc2ccc(-c3ccccc3)c(C(F)(F)F)c2)c(=O)c2ccc(C(=O)O)cc21", "Papp": "3 ×10⁻⁶ cm/s"}
{"mol": "Cn1cc(C(=O)Nc2ccc(-c3ccccc3)c(C(F)(F)F)c2)c(=O)c2ccc(CO)cc21", "Papp": "2.8 ×10⁻⁶ cm/s"}

Now take the following compound into account.
Input: // lookup Papp for Cn1cc(C(=O)Nc2ccc(-c3ccccc3)c(C(F)(F)F)c2)c(=O)c2ccc(CCC(=O)O)cc21
Output: 1.6 ×10⁻⁶ cm/s
